Source of measurements: patent US12377175B2

Test system: LNCaP xenograft tumor-bearing mice
Test: PET/CT imaging of 66Ga-RPS ligands in LNCaP xenograft mice
Type: in vivo, mouse
Conditions: 66Ga PET/CT; over 1, 3, 6 and 24 h post injection
Experimental Endpoint: maximum uptake in the tumor (image-derived) (% ID/cm^3)
Give the number; % ID/cm^3 is assumed, so skip it.

Solved cases below.
INSERT INTO measurements (compound, numeric_result) VALUES
  ('O=C(O)CCC(NC(=O)NC(CCCCNC(=O)Nc1cccc(-c2cnnn2CC(=O)NC(CCCCNC(=S)Nc2ccc(CC3CN(CC(=O)O)CCN(CC(=O)O)CCN(CC(=O)O)CCN3CC(=O)O)cc2)C(=O)NC(CCCCNC(=O)Cc2ccc(I)cc2)C(=O)O)c1)C(=O)O)C(=O)O (stereo not shown) [66Ga-RPS-068, metal not drawn]', 9.7),
  ('O=C([O-])CN1CCN(CC(=O)[O-])CCN(CC(=O)O)C(Cc2ccc(NC(=S)NCCCC[C@H](NC(=O)CCOCCOCCOCCn3cc(-c4cccc(NC(=O)NCCCC[C@H](NC(=O)N[C@@H](CCC(=O)O)C(=O)O)C(=O)O)c4)nn3)C(=O)N[C@@H](CCCCNC(=O)Cc3ccc(I)cc3)C(=O)O)cc2)CN(CC(=O)[O-])CC1.[66Ga+3] (stereo partly shown) [66Ga-RPS-063]', 9.5),
  ('O=C([O-])CN1CCN(CC(=O)[O-])CCN(CC(=O)O)C(Cc2ccc(NC(=S)NCCCC[C@H](NC(=O)CCOCCOCCOCCOCCOCCOCCOCCOCCn3cc(-c4cccc(NC(=O)NCCCC[C@H](NC(=O)N[C@@H](CCC(=O)O)C(=O)O)C(=O)O)c4)nn3)C(=O)N[C@@H](CCCCNC(=O)Cc3ccc(I)cc3)C(=O)O)cc2)CN(CC(=O)[O-])CC1.[66Ga+3] (stereo partly shown) [66Ga-RPS-066]', 7.8);

With those in mind, consider the next compound.
GET /values?readout=maximum uptake in the tumor (image-derived)&item= O=C(O)CCC(NC(=O)NC(CCCCNC(=O)C(Cc1ccc2ccccc2c1)NC(=O)C1CCC(CNC(=O)CN2CCN(CC(=O)O)CCN(CC(=O)O)CCN(CC(=O)O)CC2)CC1)C(=O)O)C(=O)O (stereo not shown) [66Ga-PSMA-617, metal not drawn, reference compound]
3.1

====

System: LNCaP xenograft tumor-bearing mice
Experiment: Biodistribution studies of 177Lu-labeled ligands in LNCaP xenograft mice
Format: in vivo, mouse
Settings: corresponding 177Lu-labeled compound; 4 h p.i. (a)
Experimental Endpoint: Max. Tumor Uptake (% ID/g)
Give the number; % ID/g is assumed, so skip it.

INSERT INTO assay_data (compound, experimental_endpoint, units_label, numeric_result) VALUES
  ('O=C(O)CC[C@H](NC(=O)N[C@@H](CCCCNC(=O)Nc1cccc(-c2cn(CCOCCOCCOCCOCCC(=O)N[C@@H](CCCCNC(=S)Nc3ccc(CC4CN(CC(=O)O)CCN(CC(=O)O)CCN(CC(=O)O)CCN4CC(=O)O)cc3)C(=O)N[C@@H](CCCCNC(=O)Cc3ccc(I)cc3)C(=O)O)nn2)c1)C(=O)O)C(=O)O (some centres unmarked)', 'Max. Tumor Uptake', '% ID/g', 20.4);

GET /values?readout=Max. Tumor Uptake&item= O=C(O)CC[C@H](NC(=O)N[C@@H](CCCCNC(=O)Nc1cccc(-c2cn(CCOCCOCCOCCOCCOCCOCCOCCOCCC(=O)N[C@@H](CCCCNC(=S)Nc3ccc(CC4CN(CC(=O)O)CCN(CC(=O)O)CCN(CC(=O)O)CCN4CC(=O)O)cc3)C(=O)N[C@@H](CCCCNC(=O)Cc3ccc(I)cc3)C(=O)O)nn2)c1)C(=O)O)C(=O)O (some centres unmarked)
18.7

GET /values?readout=Max. Tumor Uptake&item= O=C(O)CC[C@H](NC(=O)N[C@@H](CCCCNC(=O)Nc1cccc(-c2cn(CCOCCOCCOCCOCCOCCOCCC(=O)N[C@@H](CCCCNC(=S)Nc3ccc(CC4CN(CC(=O)O)CCN(CC(=O)O)CCN(CC(=O)O)CCN4CC(=O)O)cc3)C(=O)N[C@@H](CCCCNC(=O)Cc3ccc(I)cc3)C(=O)O)nn2)c1)C(=O)O)C(=O)O (some centres unmarked)
17.0

GET /values?readout=Max. Tumor Uptake&item= O=C(O)CC[C@H](NC(=O)N[C@@H](CCCCNC(=O)Nc1cccc(-c2cn(CCOCCOCCOCCC(=O)N[C@@H](CCCCNC(=S)Nc3ccc(CC4CN(CC(=O)O)CCN(CC(=O)O)CCN(CC(=O)O)CCN4CC(=O)O)cc3)C(=O)N[C@@H](CCCCNC(=O)Cc3ccc(I)cc3)C(=O)O)nn2)c1)C(=O)O)C(=O)O (some centres unmarked)
30.0

GET /values?readout=Max. Tumor Uptake&item= O=C(O)CC[C@H](NC(=O)N[C@@H](CCCCNC(=O)Nc1cccc(-c2cnnn2CCOCCOCCOCCOCCOCCOCCOCCOCCOCCOCCOCCOCCC(=O)N[C@@H](CCCCNC(=S)Nc2ccc(CC3CN(CC(=O)O)CCN(CC(=O)O)CCN(CC(=O)O)CCN3CC(=O)O)cc2)C(=O)N[C@@H](CCCCNC(=O)Cc2ccc(I)cc2)C(=O)O)c1)C(=O)O)C(=O)O (some centres unmarked)
7.6
